target-under-test: BRD4BD2-DCAF16 ternary complex (Homo sapiens, UniProt O60885+Q9NXF7)
Construct: E3 ligase to bromodomain 2 (BRD4BD2); His6 (N); StrepII (N); Avi (N); made in house; host or cells: BRD4BD2: E. coli (pET100/D-TOPO)
Sequence (Q9NXF7 whole entry, other chains not shown): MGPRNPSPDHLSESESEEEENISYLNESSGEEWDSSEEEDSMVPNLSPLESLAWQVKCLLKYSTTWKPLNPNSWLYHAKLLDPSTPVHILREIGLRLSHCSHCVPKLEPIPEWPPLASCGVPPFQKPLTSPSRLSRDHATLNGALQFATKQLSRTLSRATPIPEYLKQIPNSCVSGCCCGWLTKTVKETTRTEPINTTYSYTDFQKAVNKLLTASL
protocol-summary: DDB1-DCAF16-BRD4BD2 TR-FRET ternary complex formation assay
Assay type: biochemical
measurement-context: 6 h degrader incubation
property-name: TR-FRETmax (520 nm/490 nm ratio)
Returns: the value as a bare number; no unit string appended.

Reference set (3 entries):
molecule	target-under-test	TR-FRETmax (520 nm/490 nm ratio)
COC(=O)/C=C/c1ccc(C2=N[C@@H](CC(=O)OC(C)(C)C)c3nnc(C)n3-c3sc(C)c(C)c32)cc1 [MMH269]	BRD4BD2-DCAF16 ternary complex (Homo sapiens, UniProt O60885+Q9NXF7)	0.18
C=CS(=O)(=O)Nc1ccc(C2=N[C@@H](CC(=O)OC(C)(C)C)c3nnc(C)n3-c3sc(C)c(C)c32)cc1 [MMH2]	BRD4BD2-DCAF16 ternary complex (Homo sapiens, UniProt O60885+Q9NXF7)	3.75
Cc1sc2c(c1C)C(c1ccc(C#CC=O)cc1)=N[C@@H](CC(=O)OC(C)(C)C)c1nnc(C)n1-2 [TMX4128]	BRD4BD2-DCAF16 ternary complex (Homo sapiens, UniProt O60885+Q9NXF7)	0.65

Note to self: TR-FRETmax (520 nm/490 nm ratio) recorded for Cc1sc2c(c1C)C(c1ccc(C#CCN)cc1)=N[C@@H](CC(=O)OC(C)(C)C)c1nnc(C)n1-2 [GNE011, reference compound] was 0.18

====

target-under-test: BRD4 (Homo sapiens)
protocol-summary: Western blot of BRD4 degradation, wild-type K562 cells
Format: cell-based
Parameters: an 11 amino acid peptide knock-in tag to a protein-of-interest using CRISPR insertion; endogenous in cells
measurement-context: wild-type K562, 1 μM, 16 h
property-name: BRD4 degradation by Western blot (in words)

molecule	measured
Cc1sc2c(c1C)C(c1ccc(C#CCN)cc1)=N[C@@H](CC(=O)OC(C)(C)C)c1nnc(C)n1-2 [GNE011, reference compound]	moderate degradation
Cc1sc2c(c1C)C(c1ccc(NC(=O)CCl)cc1)=N[C@@H](CC(=O)OC(C)(C)C)c1nnc(C)n1-2 [MMH249]	moderate degradation

====

Let's look at some molecules and their measured half-life.
Test system: glutathione
protocol-summary: GSH stability (glutathione reactivity) assay by LC-MS/MS
Assay type: physicochemical
measurement-context: PBS containing 5 mM reduced glutathione; PBS + 5 mM GSH; extrapolated from 240 min assay
Description: Furthermore, we wanted to determine the kinetics of the BRD4BD2-DCAF16 interaction given its covalent nature. […] Additionally, to understand the relationship between ternary complex formation kinetics and warhead reactivity we measured the depletion of the covalent analogs in the presence of glutathione using MS (Table S2). […].
Just the number please, in h, no unit attached.

Reference set (2 entries):
molecule	half-life, h
Cc1sc2c(c1C)C(c1ccc(/C=C/C=O)cc1)=N[C@@H](CC(=O)OC(C)(C)C)c1nnc(C)n1-2 [TMX1]	6.92
Cc1sc2c(c1C)C(c1ccc(C#CCN)cc1)=N[C@@H](CC(=O)OC(C)(C)C)c1nnc(C)n1-2 [GNE011, reference compound]	11.3

Kindly review the next molecule as well.
Note to self: half-life recorded for Cc1sc2c(c1C)C(c1ccc(C#CC(N)=O)cc1)=N[C@@H](CC(=O)OC(C)(C)C)c1nnc(C)n1-2 [MMH287] was 6.33

====

protocol-summary: GSH stability (glutathione reactivity) assay by LC-MS/MS
Type: physicochemical
measurement-context: phosphate buffered saline (PBS) without glutathione, extrapolated from 240 min assay
property-name: half-life

Reference set (2 entries):
compound	half-life
Cc1sc2c(c1C)C(c1ccc(C#CC(N)=O)cc1)=N[C@@H](CC(=O)OC(C)(C)C)c1nnc(C)n1-2	> 12.5 h
Cc1sc2c(c1C)C(c1ccc(/C=C/C(N)=O)cc1)=N[C@@H](CC(=O)OC(C)(C)C)c1nnc(C)n1-2	> 12.5 h

Kindly review the next compound as well.
Note to self: half-life recorded for Cc1sc2c(c1C)C(c1ccc(C#CCN)cc1)=N[C@@H](CC(=O)OC(C)(C)C)c1nnc(C)n1-2 [GNE011, reference compound] was > 12.5 h

====

target-under-test: BRD4BD2-DCAF16 ternary complex (Homo sapiens, UniProt O60885+Q9NXF7)
Construct: E3 ligase to bromodomain 2 (BRD4BD2); His6 (N); StrepII (N); Avi (N); made in house; host or cells: BRD4BD2: E. coli (pET100/D-TOPO)
protocol-summary: DDB1-DCAF16-BRD4BD2 TR-FRET ternary complex formation assay
Type: biochemical
measurement-context: measured at 1, 2, 4, 6 and 24 h
Let's look at some compounds and their measured incubation time of saturation / maximum TR-FRET signal.
Just the number please, in h, no unit attached.

Reference set (3 entries):
compound-smiles	measured
C=CC(=O)Nc1ccc(C2=N[C@@H](CC(=O)OC(C)(C)C)c3nnc(C)n3-c3sc(C)c(C)c32)cc1	24
Cc1sc2c(c1C)C(c1ccc(C#CC=O)cc1)=N[C@@H](CC(=O)OC(C)(C)C)c1nnc(C)n1-2	1
Cc1sc2c(c1C)C(c1ccc(/C=C/C=O)cc1)=N[C@@H](CC(=O)OC(C)(C)C)c1nnc(C)n1-2	1

Note to self: incubation time of saturation / maximum TR-FRET signal recorded for `C=CS(=O)(=O)Nc1ccc(C2=N[C@@H](CC(=O)OC(C)(C)C)c3nnc(C)n3-c3sc(C)c(C)c32)cc1` was 1

Note to self: incubation time of saturation / maximum TR-FRET signal recorded for `Cc1sc2c(c1C)C(c1ccc(NC(=O)CCl)cc1)=N[C@@H](CC(=O)OC(C)(C)C)c1nnc(C)n1-2` was 24

====

target-under-test: BRD4BD2 (Homo sapiens, UniProt O60885)
protocol-summary: BRD4 AlphaScreen competition assay (JQ1-biotin displacement), BRD4BD2
Assay type: binding
measurement-context: read-out: IC50 BRD4BD2
Let's look at some compounds and their measured IC50.

Reference set (5 entries):
compound	property-name	measured
Cc1sc2c(c1C)C(c1ccc(NC(=O)CCl)cc1)=N[C@@H](CC(=O)OC(C)(C)C)c1nnc(C)n1-2	IC50	2.59 nM
Cc1sc2c(c1C)C(c1ccc(/C=C/C=O)cc1)=N[C@@H](CC(=O)OC(C)(C)C)c1nnc(C)n1-2	IC50	33.9 nM
Cc1sc2c(c1C)C(c1ccc(C#CCN)cc1)=N[C@@H](CC(=O)OC(C)(C)C)c1nnc(C)n1-2 [GNE011, reference compound]	IC50	7.79 nM
Cc1sc2c(c1C)C(c1ccc(/C=C/C(N)=O)cc1)=N[C@@H](CC(=O)OC(C)(C)C)c1nnc(C)n1-2	IC50	7.58 nM
Cc1sc2c(c1C)C(c1ccc(C#CCO)cc1)=N[C@@H](CC(=O)OC(C)(C)C)c1nnc(C)n1-2	IC50	3.92 nM

Note to self: IC50 recorded for `COC(=O)/C=C/c1ccc(C2=N[C@@H](CC(=O)OC(C)(C)C)c3nnc(C)n3-c3sc(C)c(C)c32)cc1` was 5.07 nM

Note to self: IC50 recorded for `Cc1sc2c(c1C)C(c1ccc(C#CC=O)cc1)=N[C@@H](CC(=O)OC(C)(C)C)c1nnc(C)n1-2` was 21.7 nM

Note to self: IC50 recorded for `C=CC(=O)Nc1ccc(C2=N[C@@H](CC(=O)OC(C)(C)C)c3nnc(C)n3-c3sc(C)c(C)c32)cc1` was 15.5 nM

====

Let's look at some compounds and their measured TR-FRETmax (520 nm/490 nm ratio).
target-under-test: BRD4BD2-DCAF16 ternary complex (Homo sapiens, UniProt O60885+Q9NXF7)
Construct: E3 ligase to bromodomain 2 (BRD4BD2); His6 (N); StrepII (N); Avi (N); made in house; host or cells: BRD4BD2: E. coli (pET100/D-TOPO)
protocol-summary: DDB1-DCAF16-BRD4BD2 TR-FRET ternary complex formation assay
Format: biochemical
measurement-context: 6 h degrader incubation
Returns: the value as a bare number; no unit string appended.

Reference set (4 entries):
compound-smiles	TR-FRETmax (520 nm/490 nm ratio)
Cc1sc2c(c1C)C(c1ccc(/C=C/C(N)=O)cc1)=N[C@@H](CC(=O)OC(C)(C)C)c1nnc(C)n1-2	0.14
Cc1sc2c(c1C)C(c1ccc(NC(=O)CCl)cc1)=N[C@@H](CC(=O)OC(C)(C)C)c1nnc(C)n1-2	0.77
Cc1sc2c(c1C)C(c1ccc(/C=C/C=O)cc1)=N[C@@H](CC(=O)OC(C)(C)C)c1nnc(C)n1-2	1.34
C=CC(=O)Nc1ccc(C2=N[C@@H](CC(=O)OC(C)(C)C)c3nnc(C)n3-c3sc(C)c(C)c32)cc1	1.78

Note to self: TR-FRETmax (520 nm/490 nm ratio) recorded for `Cc1sc2c(c1C)C(c1ccc(C#CC(N)=O)cc1)=N[C@@H](CC(=O)OC(C)(C)C)c1nnc(C)n1-2` was 0.15

Note to self: TR-FRETmax (520 nm/490 nm ratio) recorded for `Cc1sc2c(c1C)C(c1ccc(C#CCO)cc1)=N[C@@H](CC(=O)OC(C)(C)C)c1nnc(C)n1-2` was 0.16
